# Tested on: SGC-7901
# protocol description: Antiproliferative activity against human SGC7901 cells assessed as reduction in cell growth incubated for 72 hrs by MTT assay
# Type: functional, cell-based
# settings: SGC-7901, 72 h
measured endpoint: pIC50
Recall that pIC50 is obtained by taking minus log10 of the concentration measured in molar.

>  <compound>
COc1cccc(-c2cnc3[nH]nc(-c4cc(OC)c(OC)c(OC)c4)c3c2)c1

>  <pIC50>
5.72

$$$$
>  <compound>
COc1cc(-c2n[nH]c3ncc(-c4ccc(Br)cc4N)cc23)cc(OC)c1OC

>  <pIC50>
5.26

$$$$

As a next step, examine the compound that follows.
**Q:** // query pIC50 value for entry `COc1cc(-c2n[nH]c3ncc(-c4ccccc4)cc23)cc(OC)c1OC`
**A:** 7.43
